Tested System: T1, PSMA Fab (006 PSMA Fab)
T1 construct: also called Anti-PSMA Fab; anti-PSMA Fab
Protocol Details: phage ELISA; biotinylated PSMA Fab on neutravidin plate pre-incubated with PSMA antigen as competitor, clonal phage supernatant, anti-M13 HRP
Endpoint Label: Phage binding ELISA signal, Anti-PSMA Fab with PSMA antigen
Lab note: jot down the number only; don't add units.

The cases that follow already have their Phage binding ELISA signal, Anti-PSMA Fab with PSMA antigen on record.
[
  {
    "Binder": "MMHNCIPYWMCAGF [Phage-3249]",
    "Readout Value": 0.101
  },
  {
    "Binder": "ETSMCRPSWMCEGF [Phage-3242]",
    "Readout Value": 0.0918
  },
  {
    "Binder": "MPMHCVPSWMCEGF [Phage-3252]",
    "Readout Value": 0.0901
  },
  {
    "Binder": "VTHSCVPAWMCVGL [Phage-3248]",
    "Readout Value": 0.091
  }
]

With those in mind, consider the next binder.
Give its Phage binding ELISA signal, Anti-PSMA Fab with PSMA antigen value. Item: NILRCEPMWMCTGF [Phage-3245] 0.0977
